Exercise: for every item that follows, state its recorded log10 Solubility in water.
- ASSAY_INFO: Measurement of solubility in water by liquid chromatography
- Format: physicochemical
- MEASUREMENT_CONTEXT: in water, saturated solution shaken 12 hrs at 30° C., HPLC
Counter-ions that a name gives are not always drawn.
On a log10 scale: recorded Solubility in water, unit µg/mL.

Return the recorded log10 Solubility in water value; entry: COc1cc2c(cc1OCc1ccccc1)C(Cc1cccc(NS(C)(=O)=O)c1)NCC2 (centres unmarked) [SIPI-409 Glycolate]
3.51

For COc1cc2c(cc1OCc1ccccc1)C(Cc1cccc(NS(C)(=O)=O)c1)NCC2 (centres unmarked) [SIPI-409 Hydrobromate] , write its log10 Solubility in water.
2.64

Dear colleague, please send me the reported log10 Solubility in water for COc1cc2c(cc1OCc1ccccc1)C(Cc1cccc(NS(C)(=O)=O)c1)NCC2 (centres unmarked) [SIPI-409 Succinate] when you can.
2.20

Determine its reported log10 Solubility in water: COc1cc2c(cc1OCc1ccccc1)C(Cc1cccc(NS(C)(=O)=O)c1)NCC2 (centres unmarked) [SIPI-409 Fumarate]
2.08

Consider the molecule COc1cc2c(cc1OCc1ccccc1)C(Cc1cccc(NS(C)(=O)=O)c1)NCC2 (centres unmarked) [SIPI-409 Orotate] and give its recorded log10 Solubility in water.
3.29

Please indicate log10 Solubility in water recorded for COc1cc2c(cc1OCc1ccccc1)C(Cc1cccc(NS(C)(=O)=O)c1)NCC2 (centres unmarked) [SIPI-409 Sulfate]
3.76

Answer with the recorded log10 Solubility in water of COc1cc2c(cc1OCc1ccccc1)C(Cc1cccc(NS(C)(=O)=O)c1)NCC2 (centres unmarked) [SIPI-409 Oxalate] only.
3.55

Please indicate log10 Solubility in water recorded for COc1cc2c(cc1OCc1ccccc1)C(Cc1cccc(NS(C)(=O)=O)c1)NCC2 (centres unmarked) [SIPI-409, reference compound]
1.85

###

- ASSAY_INFO: Measurement of solubility in water by liquid chromatography
- Format: physicochemical
- MEASUREMENT_CONTEXT: water, 30 °C, water, thermodynamic from solid, in water, saturated solution shaken 12 hrs at 30° C., HPLC; read-out: Solubility in water
RECORDED_ENDPOINT: solubility at 12 h (µg/mL)
Give your result in µg/mL as a bare value.

Recall and state the measured solubility at 12 h for COc1cc2c(cc1OCc1ccccc1)C(Cc1cccc(NS(C)(=O)=O)c1)NCC2 (racemic) [SIPI-409 Malate] .
380

###

- ASSAY_INFO: Measurement of solubility in water by liquid chromatography
- Assay type: physicochemical
- MEASUREMENT_CONTEXT: thermodynamic from solid; in water, saturated solution shaken 12 hrs at 30° C., HPLC; read-out: Solubility
RECORDED_ENDPOINT: solubility at 12 h

Give the value of solubility at 12 h reported for the following: COc1cc2c(cc1OCc1ccccc1)C(Cc1cccc(NS(C)(=O)=O)c1)NCC2 (stereo not shown) [SIPI-409 Benzenesulfonate]
3.21 mM

###

- ASSAY_INFO: Measurement of solubility in water by liquid chromatography
- Assay type: physicochemical
- MEASUREMENT_CONTEXT: water, 30 °C, water, thermodynamic from solid, in water, saturated solution shaken 12 hrs at 30° C., HPLC; read-out: Solubility
RECORDED_ENDPOINT: solubility at 12 h

Supply solubility at 12 h value. Item: COc1cc2c(cc1OCc1ccccc1)C(Cc1cccc(NS(C)(=O)=O)c1)NCC2 (racemic) [SIPI-409 Malate]
650 µM

###

- ASSAY_INFO: Measurement of solubility in water by liquid chromatography
- Type: physicochemical
- MEASUREMENT_CONTEXT: in water, saturated solution shaken 12 hrs at 30° C., HPLC
Structures can show the parent of a compound that is named as a salt.
Please respond with reported Solubility in water for every item in the list.
Output should be the measured figure followed by the unit it is expressed in.

Using the record for COc1cc2c(cc1OCc1ccccc1)C(Cc1cccc(NS(C)(=O)=O)c1)NCC2 (centres unmarked) [SIPI-409 Ethionate] , state its measured Solubility in water.
440 µg/mL

Kindly indicate its recorded Solubility in water. Item: COc1cc2c(cc1OCc1ccccc1)C(Cc1cccc(NS(C)(=O)=O)c1)NCC2 (centres unmarked) [SIPI-409 Hydrochloride, reference compound]
510 µg/mL

Give Solubility in water for the following compound: COc1cc2c(cc1OCc1ccccc1)C(Cc1cccc(NS(C)(=O)=O)c1)NCC2 (centres unmarked) [SIPI-409 Phosphate]
9690 µg/mL

Provide measured Solubility in water value, entry: COc1cc2c(cc1OCc1ccccc1)C(Cc1cccc(NS(C)(=O)=O)c1)NCC2 (centres unmarked) [SIPI-409 Tartarate]
220 µg/mL

Provide measured Solubility in water value, entry: COc1cc2c(cc1OCc1ccccc1)C(Cc1cccc(NS(C)(=O)=O)c1)NCC2 (centres unmarked) [SIPI-409 Nicotinate]
4260 µg/mL

###

- ASSAY_INFO: Measurement of solubility in water by liquid chromatography
- Type: physicochemical
- MEASUREMENT_CONTEXT: thermodynamic from solid; in water, saturated solution shaken 12 hrs at 30° C., HPLC; read-out: Solubility in water
RECORDED_ENDPOINT: solubility at 12 h

Report solubility at 12 h, nothing else, for this molecule: COc1cc2c(cc1OCc1ccccc1)C(Cc1cccc(NS(C)(=O)=O)c1)NCC2 (stereo not shown) [SIPI-409 Benzenesulfonate]
1960 µg/mL

###

- ASSAY_INFO: Hygroscopicity investigation (dynamic vapor sorption)
- Assay type: physicochemical
- MEASUREMENT_CONTEXT: dynamic vapor sorption analyzer
Structures can show the parent of a compound that is named as a salt.
RECORDED_ENDPOINT: DVS Max Hygroscopicity (%)
Report the figure in % without appending any unit label.

Give a short answer stating reported DVS Max Hygroscopicity for COc1cc2c(cc1OCc1ccccc1)C(Cc1cccc(NS(C)(=O)=O)c1)NCC2 (stereo not drawn) [SIPI-409 Benzenesulfonate] .
4.5

Give the reported value of DVS Max Hygroscopicity for this record: COc1cc2c(cc1OCc1ccccc1)C(Cc1cccc(NS(C)(=O)=O)c1)NCC2 (stereo not drawn) [SIPI-409 Nicotinate]
4.5

Answer with the recorded DVS Max Hygroscopicity of COc1cc2c(cc1OCc1ccccc1)C(Cc1cccc(NS(C)(=O)=O)c1)NCC2 (stereo not drawn) [SIPI-409 Oxalate] only.
9.5

Provide DVS Max Hygroscopicity value for the following molecule: COc1cc2c(cc1OCc1ccccc1)C(Cc1cccc(NS(C)(=O)=O)c1)NCC2 (stereo not drawn) [SIPI-409 Orotate]
1.1

Answer with the recorded DVS Max Hygroscopicity of COc1cc2c(cc1OCc1ccccc1)C(Cc1cccc(NS(C)(=O)=O)c1)NCC2 (stereo not drawn) [SIPI-409 Sulfate] only.
5.2

Please give measured DVS Max Hygroscopicity of the following entry: COc1cc2c(cc1OCc1ccccc1)C(Cc1cccc(NS(C)(=O)=O)c1)NCC2 (stereo not drawn) [SIPI-409 Glycolate]
0.8

###

- ASSAY_INFO: Light stability investigation (light incubator, XRPD)
- Format: physicochemical
- MEASUREMENT_CONTEXT: XRPD on day 0, 5, 10, 20 and 30
Where a name gives a salt, the structure may show the parent alone.
RECORDED_ENDPOINT: Stability Light

Given COc1cc2c(cc1OCc1ccccc1)C(Cc1cccc(NS(C)(=O)=O)c1)NCC2 (stereo not drawn) [SIPI-409 Sulfate] , respond with its Stability Light.
Stable

Respond only with Stability Light recorded for COc1cc2c(cc1OCc1ccccc1)C(Cc1cccc(NS(C)(=O)=O)c1)NCC2 (stereo not drawn) [SIPI-409 Oxalate]
Stable

Identify the reported Stability Light for the following entry. COc1cc2c(cc1OCc1ccccc1)C(Cc1cccc(NS(C)(=O)=O)c1)NCC2 (stereo not drawn) [SIPI-409 Orotate]
Stable

Quick one: give measured Stability Light for COc1cc2c(cc1OCc1ccccc1)C(Cc1cccc(NS(C)(=O)=O)c1)NCC2 (stereo not drawn) [SIPI-409 Benzenesulfonate]
Stable

Please report the measured Stability Light for COc1cc2c(cc1OCc1ccccc1)C(Cc1cccc(NS(C)(=O)=O)c1)NCC2 (stereo not drawn) [SIPI-409 Nicotinate]
Stable

Continuing:
Write down Stability Light measured for item COc1cc2c(cc1OCc1ccccc1)C(Cc1cccc(NS(C)(=O)=O)c1)NCC2 (stereo not drawn) [SIPI-409 Glycolate]
Stable
